System: SK-MEL-5 melanoma
Test: NCI tumour cell line growth inhibition, 48 h; in the data active means GI50 below about 0.43 µM; inactive means the rest
// one of active, inactive, no free text

As a guide, the following entries are already answered.
Incoming: Identify the outcome logged in this assay for the compound shown: N#Cc1c(N)nc(N2CCOCC2)c(C#N)c1-c1c(Cl)cccc1Cl
Outgoing: inactive

Incoming: Identify the outcome logged in this assay for the compound shown: CSc1nc2c(c(=O)n1C)C(c1ccccc1)C1=C(N2)/C(=C/c2ccccc2)CCC1 (stereo unspecified)
Outgoing: inactive

Incoming: Identify the outcome logged in this assay for the compound shown: C=C(C)C(=O)Nc1ccc(-c2c(-c3ccc(Oc4nccc(C)n4)c(F)c3)c3c(N)ncnc3n2C)cc1
Outgoing: inactive

Incoming: Identify the outcome logged in this assay for the compound shown: S=C(SSC(=S)N1CCCCC1)N1CCCCC1
Outgoing: inactive

Incoming: Identify the outcome logged in this assay for the compound shown: O=C1/C(=C/c2ccc([N+](=O)[O-])o2)Oc2ccc(Cl)cc21
Outgoing: inactive

Continuing:
Incoming: Identify the outcome logged in this assay for the compound shown: COc1ccc2c(c1)C(=O)c1c-2n(CCCN(C)C)c(=O)c2cc([N+](=O)[O-])ccc12
Outgoing: active

Incoming: Identify the outcome logged in this assay for the compound shown: COc1ccc2c(c1)/C(=N/OC(C)=O)c1c-2c(OC)nc2ccccc12
Outgoing: inactive

====

Field: TGI. Provide a value for each of the compounds that follow.
Tested on: M14 melanoma
Test: NCI tumour cell line growth inhibition, 48 h

Incoming: Report measured TGI; entry is COC(=O)c1cc(-c2ccc(S(C)(=O)=O)cc2)[nH]c1N/N=C/c1c(Cl)cccc1Cl
Outgoing: 9.77 µM

Incoming: Report measured TGI; entry is Cc1ccc(NC(=O)C2C3CCC(O3)C2C(=O)O)cc1 (stereo unspecified)
Outgoing: > 76.4 µM

Incoming: Report measured TGI; entry is Cc1ccnc(Nc2[nH]c(C(=O)c3ccc(Cl)cc3)c(N)c2C(=S)Nc2ccccc2)c1
Outgoing: 31.9 µM

# batch: return TGI for each of the 7 compounds below
1. CC(=O)CC(=O)Nc1ccccc1C(F)(F)F
2. COc1ccc([I+]c2ccc(OC)cc2)cc1
3. Cc1ccc(Nc2nc(-c3ccc(-c4ccc([N+](=O)[O-])cc4)o3)cs2)cc1
4. CCN(CC)c1ccc(C2N3CCCCC3[C@@H]3c4[nH]c5ccccc5c4CCN23)cc1 (stereo partly specified)
5. COc1ccc(/C=C/C(=O)c2ccc(Br)cc2)cc1
6. COc1cc(C(=O)n2nc(N)c3c(C)cc(C)nc32)cc(OC)c1OC
7. Oc1[nH]c2ccccc2c1C=Nc1ccc(-n2cncn2)cc1

Outgoing:
1. > 100 µM
2. > 100 µM
3. > 100 µM
4. 64.8 µM
5. > 100 µM
6. > 100 µM
7. > 25 µM

Incoming: Report measured TGI; entry is CC(NNC(=O)c1ccncc1)c1cccc(C(F)(F)F)c1 (stereo unspecified)
Outgoing: > 100 µM

====

Field: TGI. Provide a value for each of the compounds that follow.
Test system: CCRF-CEM leukemia
Test: NCI tumour cell line growth inhibition, 48 h

# batch: return TGI for each of the 3 compounds below
1. COc1cc2c[n+](C)c3c4cc(OC)c(OCc5ccccc5)cc4c(OCc4ccccc4)cc3c2cc1OC
2. COc1ccc2c(c1)C(=O)c1c-2n(CCCN(C)C)c(=O)c2cc([N+](=O)[O-])ccc12
3. CSc1nc2c(c(=O)n1C)C(c1ccccc1)C1=C(N2)/C(=C/c2ccccc2)CCC1 (stereo not drawn)

Outgoing:
["72.4 µM", "< 0.01 µM", "> 100 µM"]

# batch: return TGI for each of the 2 compounds below
1. COc1ccc(-c2c(-c3ccc(C#N)c(F)c3)nc(N3CCC(N)CC3)n(C)c2=O)cc1F
2. CCOC(=O)NN(C(=O)OCC)C(C(=O)c1ccccc1)N(NC(=O)OCC)C(=O)OCC

Outgoing:
1. 53 µM
2. > 100 µM

# batch: return TGI for each of the 2 compounds below
1. C(=C/c1nnnn1-c1ccccc1)/Nc1ccccc1
2. Cn1c(=O)c2[nH]c(SC/C(=N/O)c3ccc(Br)cc3)nc2n(C)c1=O

Outgoing:
1: > 100 µM; 2: 57.1 µM
